Test system: MCF7 breast
Experimental Protocol: NCI tumour cell line growth inhibition, 48 h
Assay Readout: TGI (µM)

>>> value_observed("CN1CCN(c2ccc3nc(-c4ccc5nc(-c6ccc(C(F)(F)F)cc6)[nH]c5c4)[nH]c3c2)CC1")
2.19
>>> value_observed("O=C(C1=CCC2(CC1)OCCO2)N(Cc1ccccc1)c1ccccc1I")
72.4
>>> value_observed("CCCCC/C=C1\\CCC(CN2CCOCC2)C1=O (centres undefined)")
7.73
>>> value_observed("COc1ccc(-n2nc(C)c3c(Nc4ccc(NC(=O)Nc5cc(C(F)(F)F)ccc5F)cc4)ncnc32)cc1")
14.7
>>> value_observed("C/C(=N/NC(=S)Nc1cccc(Cl)c1)c1cccc(/C(C)=N\\NC(=S)Nc2cccc(Cl)c2)n1")
8.94

###

# key: entry, value: TGI
Test system: SN12C renal
Experimental Protocol: NCI tumour cell line growth inhibition, 48 h
Assay Readout: TGI

>>> value_observed("Cc1cc(Cl)ccc1OCC(=O)Oc1c(Cl)c(Cl)c(Cl)c(Cl)c1Cl")
"62.9 µM"
>>> value_observed("Cc1nc(SCC(=O)Nc2ccccc2)c2sc(=S)n(-c3ccccc3)c2n1")
"> 10 µM"
>>> value_observed("CC(C)(C)c1ccc(NC(=O)c2cc(=O)c3ccccc3[nH]2)c(C(C)(C)C)c1O")
"24.4 µM"
>>> value_observed("CC(C)(C)OC(=O)N(CCCn1c2c(c3ccccc3c1=O)C(=O)c1ccccc1-2)CCN(CCCn1c2c(c3ccccc3c1=O)C(=O)c1ccccc1-2)C(=O)OC(C)(C)C")
"> 50 µM"
>>> value_observed("CCOC(=O)NC(=O)c1cn(-c2ccc(CCOC(=O)CCCCCCCCC(=O)OCCc3ccc(-n4cc(C(=O)NC(=O)OCC)c(=O)[nH]c4=O)cc3)cc2)c(=O)[nH]c1=O")
"> 100 µM"
>>> value_observed("CCCCNC(=O)C1=C(C)NC(C)=C(C(=O)NCCCC)C1")
"> 100 µM"
>>> value_observed("O=C(CN1C(=O)c2ccccc2C1=O)OC1C=CCCC1 (centres undefined)")
"> 100 µM"
>>> value_observed("CN(C)CC1CCC(CN(C)C)C1=NO (centres undefined)")
"> 100 µM"
>>> value_observed("COc1ccc2c3c([nH]c2c1[N+](=O)[O-])C(C)N(C(=O)/C=C/c1ccccc1)CC3 (centres undefined)")
"> 100 µM"
>>> value_observed("O=C(Oc1ccccc1Cl)c1cccnc1Nc1ccnc(C(F)(F)F)c1")
"18 µM"
>>> value_observed("O=c1oc2ccccc2c(O)c1C(c1ccc([N+](=O)[O-])cc1)c1c(O)c2ccccc2oc1=O")
"> 100 µM"
>>> value_observed("COC(=O)[C@@H]1C[C@H]2[C@H](c3ccccc3Br)[C@@H](OC(C)=O)[C@@H](OCc3ccccc3)ON2O1")
"> 100 µM"
>>> value_observed("CCOP(=O)(C/C(=N/NC(C)(C)C)C(=O)Nc1nc2ccc(C)cc2s1)OCC")
"> 100 µM"
>>> value_observed("CCCNCC(O)/C=C/[Si](C)(C)C (centres undefined) (tested in a mixture with another compound)")
"> 100 µM"
>>> value_observed("Cc1c(Cl)c(S(N)(=O)=O)cc(S(N)(=O)=O)c1NC(=O)c1ccc(Cl)cc1")
"> 100 µM"
>>> value_observed("Cn1c(-c2c(N)n(Cc3ccc(Cl)cc3)c3nc(C#N)c(C#N)nc23)nc2ccccc21")
"10.3 µM"
>>> value_observed("O=[N+]([O-])/C=C/c1cccc(F)c1")
"38.9 µM"
>>> value_observed("CC1(Br)C(=O)NC(=O)N([C@H]2C[C@H](O)[C@@H](CO)O2)C1N=[N+]=[N-] (some centres undefined)")
"> 100 µM"
>>> value_observed("O=C(Nc1ccccc1)N1CC(CN2CCN(c3ccccc3)CC2)OC1=O (centres undefined)")
"> 100 µM"

###

Tested on: UACC-62 melanoma
Experimental Protocol: NCI tumour cell line growth inhibition, 48 h
Assay Readout: TGI (µM)

>>> value_observed("O=C(C1=CCC2(CC1)OCCO2)N(Cc1ccccc1)c1ccccc1I")
31.1
>>> value_observed("CCCCn1c(=O)c(/C=C/C(=O)/C=C/c2ccc(O)c(OC)c2)cc2ccc(Cl)cc21")
3.24
>>> value_observed("O=[N+]([O-])/C(Cl)=C(\\Sc1ccccc1)C(Cl)=C(Cl)Cl")
1.98
>>> value_observed("CC(C)(C)c1ccc(NC(=O)c2cc(=O)c3ccccc3[nH]2)c(C(C)(C)C)c1O")
22.9
>>> value_observed("COc1cccc2c1[C@H](OC)[C@]13O[C@@]1(C2=O)[C@H](O)[C@H](C)[C@@](O)(C(=O)[C@@H]1O[C@H]1C)[C@@H]3O")
0.877
>>> value_observed("C#CCCCCC#CC1CCCC1C1=CC(=O)c2ccccc21 (stereo not given)")
6.44
>>> value_observed("CC1(C)[C@@H]2C[C@H]1C(Cc1ccccc1C[C@H]1c3cc(-c4ccccn4)ncc3[C@H]3C[C@@H]1C3(C)C)c1cc(-c3ccccn3)ncc12 (stereo not given in full)")
4.15
>>> value_observed("O=c1cc2oc3ccc4ccccc4c3cc-2c(=O)[nH]1")
32.5
>>> value_observed("CC1=CC(=O)c2cccc(O)c2C1=O")
3.68
>>> value_observed("C=C(C)[C@@H]1CC[C@]2(c3ncc(C)o3)CC[C@]3(C)[C@H](CC[C@@H]4[C@@](C)(CCC#N)[C@H](C(=C)C)CC[C@]43C)[C@@H]12")
6.96
>>> value_observed("CC(=O)NC1C(OCc2ccccc2)OC(CO)C(O)C1OCC(=O)NC(C)C(=O)NC(CCC(=O)OCCNC(=O)c1cccc2cc3ccccc3nc12)C(N)=O (stereo not given)")
34.3
>>> value_observed("O=C(N/N=C/c1cc(Br)cc(Br)c1[O-])c1ccccc1O.O=C(N/N=C/c1cc(Br)cc(Br)c1[O-])c1ccccc1O.[Cl-].[Fe+3]")
7.99
>>> value_observed("CN1C(=O)c2cccc3c([N+](=O)[O-])ccc(c23)C1=O")
4.03
>>> value_observed("CC(=O)O[C@H]1CC[C@]2(C)[C@H]3C(=O)C=C4[C@@H]5C[C@](C)(C(=O)N6CCCNCC6)CC[C@]5(C)CC[C@@]4(C)[C@]3(C)CC[C@H]2C1(C)C")
3.13
>>> value_observed("O=C(/C=C/c1ccc(O)c(O)c1)Oc1ccccc1")
35.9

###

System: K-562 leukemia
Experimental Protocol: NCI tumour cell line growth inhibition, 48 h
Assay Readout: TGI

>>> value_observed("O=C1C=CC(=O)c2c(O)c(Nc3ccc(OC(F)(F)F)cc3)c(Cl)c(O)c21")
"4.36 µM"
>>> value_observed("O=C(Oc1ccccc1Cl)c1cccnc1Nc1ccnc(C(F)(F)F)c1")
"27.6 µM"
>>> value_observed("C/C(=C\\c1ccccc1)C(O)S(=O)(=O)O (stereo unspecified)")
"> 100 µM"
>>> value_observed("CCC1(c2ccncc2)CCC(=O)NC1=O (stereo unspecified)")
"> 100 µM"
>>> value_observed("COc1ccc(CCNC(=O)Cc2ccccc2CCO)cc1OC")
"> 100 µM"
>>> value_observed("C[C@H](C(=O)N1C(=O)O[C@@H](c2ccccc2)[C@H]1C)[C@H](c1ccccc1)N(Cc1ccccc1)OC(=O)c1ccccc1")
"> 100 µM"

###

Test system: NCI-H23 lung
Experimental Protocol: NCI tumour cell line growth inhibition, 48 h
Assay Readout: TGI (µM)

>>> value_observed("CC1=CC(=O)c2cccc(O)c2C1=O")
7.32
>>> value_observed("O=C(/C=C/c1ccc(O)c(O)c1)Oc1ccccc1")
46.2
>>> value_observed("Cn1c(-c2c(N)n(Cc3ccc(Cl)cc3)c3nc(C#N)c(C#N)nc23)nc2ccccc21")
2.48
>>> value_observed("CCCCCn1ncc(-c2c(O)c(O)cc3c(O)c(-c4c(C)cc5c(-c6cnn(CCCCC)n6)c(O)c(O)cc5c4O)c(C)cc23)n1")
3.66
>>> value_observed("O=C(/C=C/c1ccccc1)c1ccc(O)c(CN2CCN(c3cc4c(cc3F)c(=O)c(C(=O)O)cn4C3CC3)CC2)c1")
16.9
>>> value_observed("O=C1c2ccccc2C(=O)c2[nH]c(=O)c(/C=N/Nc3ccc([N+](=O)[O-])cc3)nc21")
3.79
>>> value_observed("CN(C)CCNc1ccc2nnn3c4ccc(Cl)cc4c(=O)c1c23")
18.7
>>> value_observed("CCCCC/C=C1\\CCC(CN2CCOCC2)C1=O (stereo not given)")
29.8

###

Tested on: SK-MEL-28 melanoma
Experimental Protocol: NCI tumour cell line growth inhibition, 48 h
Overview of reported GI50 across a group of compounds:
Assay Readout: GI50

>>> value_observed("CN1CCN(c2ccc(NC3=C(Cl)C(=O)c4ncccc4C3=O)cc2C(F)(F)F)CC1")
"1.99 µM"
>>> value_observed("COc1cc2c(C#N)n3c(c2cc1OC)C(=O)C(c1ccccc1)Oc1ccccc1-3 (centres undefined)")
"> 100 µM"
>>> value_observed("CNC1=C(Br)C(=O)C2=C(C1=O)C1C3=C(C(=O)C=CC3=O)C2c2ccccc21 (centres undefined)")
"3.39 µM"
>>> value_observed("COc1cc(C(C)c2cc3c(cc2OCCOCCOc2cc4c(cc2C(C)c2cc(OC)c(OC)c(OC)c2)OCO4)OCO3)cc(OC)c1OC (centres undefined)")
"> 100 µM"
>>> value_observed("Cc1cc2cc(Oc3ccnc(Nc4cccc(CS(=O)(=O)NCCN(C)C)c4)n3)ccc2[nH]1")
"12.1 µM"
>>> value_observed("COc1ccc(S(=O)(=O)N2CCCCC2)cc1NC(=O)c1[nH]c(C)c2c1CCCCC2=O")
"2.72 µM"
>>> value_observed("COc1ncnc2c1ncn2C/C(Br)=C(\\Br)CCl")
"2.62 µM"
>>> value_observed("CC(=O)[CH-]C(=O)c1ccccc1.CC(=O)[CH-]C(=O)c1ccccc1.[O-]c1ccc(O)cc1.[O-]c1ccc(O)cc1.[Ti+4]")
"18.6 µM"
>>> value_observed("CCOc1ccc2c(-c3ccnc(Nc4cccc(C(F)(F)F)c4)n3)cnn2n1")
"> 25 µM"
>>> value_observed("COc1cc2c3c(n(CCCn4cccn4)c(=O)c2cc1OC)-c1cc2c(cc1C3=O)OCO2")
"5.35 µM"
>>> value_observed("COc1cccc(NC(=O)c2ccc(C(F)(F)F)nc2Nc2ccc(Cl)cc2C)c1")
"15 µM"
>>> value_observed("Cc1cc(C)c(S(=O)(=O)Oc2ccccc2[N+](=O)[O-])c(C)c1")
"5.46 µM"
>>> value_observed("COc1ccc(OC)c(-c2cn3nc(-c4c[nH]c5ccc(Br)cc45)sc3n2)c1")
"3.29 µM"
>>> value_observed("C=C(C)[C@@H]1CC[C@]2(c3ncc(C)o3)CC[C@]3(C)[C@H](CC[C@@H]4[C@@](C)(CCC#N)[C@H](C(=C)C)CC[C@]43C)[C@@H]12")
"5.42 µM"
>>> value_observed("CC(C)(C)OC(=O)N(CCCn1c2c(c3ccccc3c1=O)C(=O)c1ccccc1-2)CCN(CCCn1c2c(c3ccccc3c1=O)C(=O)c1ccccc1-2)C(=O)OC(C)(C)C")
"37 µM"
>>> value_observed("CCOc1ccccc1N=C(NC(=O)CC)SC")
"> 100 µM"
>>> value_observed("N#C/C(=C/c1cccs1)c1cccs1")
"> 100 µM"
>>> value_observed("COc1cc2c(c(OC)c1OC)C(=O)c1c-2n(CCCN)c(=O)c2cc([N+](=O)[O-])ccc12")
"1.76 µM"
>>> value_observed("CCCCn1c(=O)c(/C=C/C(=O)/C=C/c2ccc(O)c(OC)c2)cc2ccc(Cl)cc21")
"1.93 µM"

These data points were gathered from PubChem BioAssay (NCI).
